Values compiled from PubChem BioAssay.

# TEST_SUMMARY: calcein-AM signal in unstimulated myeloma cells – cell-based, calcein-AM fluorescence, 48 h, PK04 Diversity Set, profiling panel (AID 1166);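 also: cells grown under basal conditions without added stimulus; test concentration not given here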
# MEASUREMENT_PARAMETERS: RPMI8226 myeloma viability, higher = more signal
Lab note - cut at -2 for z-score: Met if strictly below, Not met if not.

Worked examples follow.
CCOC(=O)C1=CCC(c2ccc(F)cc2)N(S(=O)(=O)c2ccc(C)cc2)C1 (stereo not drawn) :: Not met
COCCOC(=O)N1C(=O)[C@@]2(c3ccccc31)[C@H](c1ccc(OCCO)cc1)N1[C@H](c3ccccc3)[C@H](c3ccccc3)OC(=O)[C@H]1[C@@H]2C(=O)N1CCc2cc(OC)c(OC)cc2C1 :: Not met

Quick check: does C=C(CCCC)/C(=C/C[C@@H](OC(C)=O)c1cccc(OCCO)c1)c1cnc2ccccc2c1 have z-score under -2?
Met

Please state whether z-score is below -2 for C=CCN1C(=O)[C@]2(O[C@H](CCO)[C@@H]([Si](C)(C)c3ccc(OC)cc3)[C@@H]2C)c2cc(N(C=O)c3ccccc3)ccc21
Met

Find out if reported z-score for C=C(CCCC)/C(=C/C[C@H](OC(C)=O)c1ccc(OCCO)cc1)c1cnc2ccccc2c1 is less than -2
Not met
